// data source = paper PMC6804483

- Study System: Polo-like kinase 1 (PLK1) Polo-box domain (Homo sapiens)
- Sequence (P53350 326-603): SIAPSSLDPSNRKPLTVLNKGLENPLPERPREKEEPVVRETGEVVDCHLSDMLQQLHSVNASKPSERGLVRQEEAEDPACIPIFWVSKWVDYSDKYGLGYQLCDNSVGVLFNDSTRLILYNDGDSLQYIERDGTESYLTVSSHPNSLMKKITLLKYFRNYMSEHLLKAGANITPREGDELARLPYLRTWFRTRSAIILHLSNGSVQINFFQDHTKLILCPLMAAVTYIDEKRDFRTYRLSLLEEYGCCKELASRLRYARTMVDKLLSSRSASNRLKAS
Quantity Name: pKd
// pKd here means minus log10 of the molar concentration (mol/L)

Input: # query: pKd | item CCOC(=O)c1oc2ccccc2c1CBr | system: Polo-like kinase 1 (PLK1) Polo-box domain (Homo sapiens)
Output: 4.72

###

- Study System: PLK2 Polo-box domain (Homo sapiens, UniProt Q9NYY3)
- Sequence (Q9NYY3 355-685): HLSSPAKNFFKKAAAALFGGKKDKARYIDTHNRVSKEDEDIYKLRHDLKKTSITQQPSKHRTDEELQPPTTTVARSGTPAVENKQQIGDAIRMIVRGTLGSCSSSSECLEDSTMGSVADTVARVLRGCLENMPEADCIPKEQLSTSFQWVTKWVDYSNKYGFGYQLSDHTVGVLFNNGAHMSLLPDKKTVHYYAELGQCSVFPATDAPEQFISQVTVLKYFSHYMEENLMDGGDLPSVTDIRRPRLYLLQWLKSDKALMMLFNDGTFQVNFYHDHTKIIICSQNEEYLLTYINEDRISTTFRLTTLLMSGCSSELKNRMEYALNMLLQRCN
Quantity Name: pIC50
Remember the convention: pIC50 equals -log10 of concentration in molar.

Input: If you can, please state the reported pIC50 value of CCOC(=O)c1oc2ccccc2c1CBr [MCC1019] .
Output: 4.36
